# procedureDetails: Pharmacokinetics in mice, subcutaneous administration
# Format: in vivo, mice (strain FVB/N)
# studyConditions: FVB/N, mouse, whole blood, sc; subcutaneous 10 mg/kg; read-out: T1/2 Whole blood (converted)
readoutKind: half-life (h)
The answer is to be given in h; state only the numeric part.

Form field: reported half-life of CC(C)[C@@H]1OC(=O)C(C)(C)/C=C/c2ccc3ccc(nc3c2)N(C)NC(=O)[C@@H]2CCCN(N2)C(=O)[C@H](C)NC1=O [Compound (2)]
3.17

----------
Exercise: for every item that follows, state its recorded Ki.
# assayedTarget: cyclophilin A (Homo sapiens (Human), UniProt P62937)
# Sequence (P62937 whole entry, species assumed): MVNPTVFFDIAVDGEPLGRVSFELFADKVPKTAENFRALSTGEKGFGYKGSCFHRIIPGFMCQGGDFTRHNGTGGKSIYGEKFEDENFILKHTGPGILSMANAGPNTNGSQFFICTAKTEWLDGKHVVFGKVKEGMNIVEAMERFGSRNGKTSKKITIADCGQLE
# procedureDetails: Functional peptidyl prolyl isomerase (PPIase) spectrophotometric assay, cyclophilin A
# studyConditions: first value of CypA/D cell
Write the figure, then the unit, nothing else.

Form field: reported Ki of CC(C)[C@@H]1OC(=O)C(C)(C)/C=C/c2ccc3ccc(nc3c2)N2CCCN2C(=O)[C@@H]2CCCN(N2)C(=O)[C@H](C)NC1=O [Compound (8)]
13.9 nM

Form field: reported Ki of C[C@@H]1NC(=O)[C@H](Cc2ccccc2Cl)OC(=O)C(C)(C)/C=C/c2ccc3ccc(nc3c2)N(C)NC(=O)[C@@H]2CCCN(N2)C1=O [Compound (81)]
9.7 nM

Form field: reported Ki of CC(C)[C@@H]1OC(=O)C(C)(C)/C=C/c2ccc3ccc(nc3c2)N(Cc2ccccc2)NC(=O)[C@@H]2CCCN(N2)C(=O)[C@H](C)NC1=O [Compound (9)]
1.7 nM

Form field: reported Ki of CC(C)[C@@H]1OC(=O)C(C)(C)/C=C/c2ccc3ccc(nc3c2)N(CCCO)NC(=O)[C@@H]2CCCN(N2)C(=O)[C@H](C)NC1=O [Compound (7)]
36.7 nM

Form field: reported Ki of CC(C)[C@@H]1OC(=O)[C@@](C)(Cc2ccccc2)/C=C/c2ccc3ccc(nc3c2)N(C)NC(=O)[C@@H]2CCCN(N2)C(=O)[C@H](C)NC1=O [Compound (17)]
1.7 nM

Form field: reported Ki of CC(C)[C@@H]1OC(=O)C(C)(C)/C=C/c2ccc3ccc(nc3c2)N(C)NC(=O)[C@@H]2CCCN(N2)C(=O)[C@H](CCC(=O)NCC2CCOCC2)NC1=O [Compound (67)]
40 nM
